B1: Hairpin Ribozyme (parent)
chain: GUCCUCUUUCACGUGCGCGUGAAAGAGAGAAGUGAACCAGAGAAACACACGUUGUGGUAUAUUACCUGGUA

Variants of: B1
Assay: self-cleavage, relative activity (ratio to wild type); higher = more cleavage; co-transcriptional
# binarize self-cleavage: threshold 0.2 inclusive, high side 1, low side 0

Sample answers from the record:
- sequence-data: "GUCCUCUUUCACGUGCGCGUGAAAGAGAGAAGUGAACCUGAGAAACGCACGUUGUGGUAUAUUACCUGGUA"
  answer-label: 0
- sequence-data: "GUCCUCUUUCCCGUGCGCGUGAAAGAGAGAAGUGAAUCAGAGAAACACACGUUGUGGUAUAUUACCUGGUA"
  answer-label: 1
- sequence-data: "GUCCUCUUUCACGUGCUCGUGGAAGAGAGAAGUGAACCAGAGAAACACACGUUGUGGUAUAUUACCUGGUA"
  answer-label: 1

Check this variant for self-cleavage at or above 0.2: GUCCACUUUCACGUGCGCGUGAAAGAGAGAAGUGAACCAGAGAAACACACGUUGUGGUAUGUUACCUGGUA
0

Check this variant for self-cleavage at or above 0.2: GUCCUCUUUCACGUGCGCGUGAAAGUGAGAUGUGAACCAGAGAAACACACGUUGUGGUAUAUUACCUGGUA
0

Attribution: the RNAGym collection of RNA variant scans (doi:10.7554/elife.80360)
